Test system: AICD
Assay: AICD by Western blot in SY5Y-APP695WT cells
Type: cell-based, human
Conditions: AICD increase compared to chloroquine ([AICD]compound/[AICD]CQ) at 3 μM; mean of at least three experiments
Would you mind labelling by AICD vs CQ (3 μM)? At or over 2 is class 1, under is class 0.

Below, 4 compounds whose answers are already recorded.
{"query.smiles": "CN(C)Cc1ccc(-c2ccc(NCCCN3CCCCC3)c(OCCN3CCCCC3)c2)cc1", "label.value": "class 1"}
{"query.smiles": "CN1CCN(Cc2ccccc2-c2ccc(NCCCN3CCCCC3)c(OCCN3CCCCC3)c2)CC1", "label.value": "class 1"}
{"query.smiles": "CN(C)CCCNc1ccc(-n2ccc(CN(C)C)c2)cc1OCCN1CCCCC1", "label.value": "class 0"}
{"query.smiles": "CN(C)Cc1ccccc1-c1cccc(OCCN2CCCCC2)c1", "label.value": "class 0"}

Proceed to the following item.
Lookup: Identify whether the reported AICD vs CQ (3 μM) of the following compound is 2 or greater: c1ccc(-c2ccc(NCCCN3CCCCC3)c(OCCN3CCCCC3)c2)c(CN2CCCCC2)c1
Found: class 1
